# Emax listing for each entry below
measured.on: GAL4-PPARγ chimeric receptor (ligand-binding domain of human PPARγ) (Homo sapiens, UniProt P37231)
Construct: expressed in transfected cells; host or cells: COS-7 (monkey kidney)
Sequence (P37231 with tags, fused parts or gaps): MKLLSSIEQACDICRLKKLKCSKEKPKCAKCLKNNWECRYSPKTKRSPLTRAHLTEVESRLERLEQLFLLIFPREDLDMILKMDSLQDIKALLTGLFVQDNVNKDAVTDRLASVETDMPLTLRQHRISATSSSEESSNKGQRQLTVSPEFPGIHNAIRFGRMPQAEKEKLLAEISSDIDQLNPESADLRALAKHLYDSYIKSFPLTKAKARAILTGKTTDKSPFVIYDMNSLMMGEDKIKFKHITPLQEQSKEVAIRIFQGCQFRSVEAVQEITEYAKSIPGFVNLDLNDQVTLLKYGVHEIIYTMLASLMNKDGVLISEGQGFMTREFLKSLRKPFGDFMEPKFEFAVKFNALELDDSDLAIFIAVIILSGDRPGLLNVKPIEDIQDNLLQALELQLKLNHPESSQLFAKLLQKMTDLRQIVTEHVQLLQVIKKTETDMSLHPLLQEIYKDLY
assay.info: Measurement of PPARγ activation effect/modulator activity (GAL4-PPARγ luciferase reporter assay in COS-7 cells)
Format: cell-based
condition.label: COS-7; maximum luciferase activity; rosiglitazone positive control = 100%, DMSO control = 0%

{"molecule": "Cc1cnc(Oc2ccc3nc(COc4cccc(C(=O)O)c4)n(C)c3c2)c(F)c1 [Reference Example 9]", "unit.descriptor": "%", "Emax": 74}
{"molecule": "CCc1cnc(Oc2ccc3nc(COc4cccc(C(=O)O)c4)n(C)c3c2)c(C)c1 [Reference Example 11]", "unit.descriptor": "%", "Emax": 82}
{"molecule": "COc1c(C)cnc(Oc2ccc3nc(COc4cccc(C(=O)O)c4)n(C)c3c2)c1C [Reference Example 14]", "unit.descriptor": "%", "Emax": 67}
{"molecule": "Cc1cc(C)c(Oc2ccc3nc(COc4cccc(C(=O)O)c4)n(C)c3c2)nc1C [Reference Example 15]", "unit.descriptor": "%", "Emax": 94}
{"molecule": "Cc1cc(F)cnc1Oc1ccc2nc(COc3cccc(C(=O)O)c3)n(C)c2c1 [Reference Example 8]", "unit.descriptor": "%", "Emax": 100}
{"molecule": "CCc1cc(C)cnc1Oc1ccc2nc(COc3cccc(C(=O)O)c3)n(C)c2c1 [Reference Example 12]", "unit.descriptor": "%", "Emax": 83}

Data credit: patent US20130204009A1
